# TARGET OF ASSAY: heteromeric KV7.2/KV7.3 channels (KCNQ2, KCNQ3) (Homo sapiens, UniProt O43525+O43526)
# ASSAY TEXT: Automated patch-clamp (Sophion Qube 384) potency assay against KV7.2/KV7.3 channels
# TEST CONDITIONS: CHO-K1/Kv7.2/Kv7.3 cells; EC50 from concentration-response of shift in Vhalf, 10 concentrations up to 30 μM; read-out: Kv7.2/7.3 EC50
pEC50: −log10 of the molar value.
READOUT NAME: pEC50

[[record]]
structure_smiles = "O=C(NCc1ccnc(OCC(F)(F)F)c1)N[C@@H]1CC[C@H](c2ccccc2)C1"
measurement = 5.81

[[record]]
structure_smiles = "C[C@@H](Oc1cc(CNC(=O)N[C@@H]2CCOc3cc(F)ccc32)ncn1)C(F)(F)F"
measurement = 5.19

[[record]]
structure_smiles = "O=C(NCc1ccnc(OCC(F)(F)F)c1)NC[C@H]1COc2ccccc2C1"
measurement = 5.65

[[record]]
structure_smiles = "Cc1ccccc1CNC(=O)NCc1ccnc(OCC(F)(F)F)c1"
measurement = 6.09

